Data provenance is ChEMBL document CHEMBL3739331.

Test system: Candida albicans
experimentalProtocol: Antifungal activity against azole-resistant Candida albicans ATCC 90819 after 48 hrs by microbroth dilution method
Type: functional
conditionSet: ATCC 90819, 48 h
Catalogue of MIC readings, one per entry.
propertyName: MIC (µg/mL)

| compound | measurementUnit | value |
| --- | --- | --- |
| CCCCCCCCCCCCSC[C@@H]1O[C@@H](O[C@@H]2[C@@H](O)[C@H](O[C@@H]3O[C@@H](CN)[C@H](O)[C@@H](O)[C@@H]3N)[C@@H](N)C[C@H]2N)[C@@H](O)[C@H](N)[C@H]1O (stereo in doubt) | µg/mL | 31.2 |
| CCCCCCCCCCCCS(=O)(=O)C[C@@H]1O[C@@H](O[C@@H]2[C@@H](O)[C@H](O[C@@H]3O[C@@H](CN)[C@H](O)[C@@H](O)[C@@H]3N)[C@@H](N)C[C@H]2N)[C@@H](O)[C@H](N)[C@H]1O (stereo in doubt) | µg/mL | 62.5 |
| CCCCCCCCCCSC[C@@H]1O[C@@H](O[C@@H]2[C@@H](O)[C@H](O[C@@H]3O[C@@H](CN)[C@H](O)[C@@H](O)[C@@H]3N)[C@@H](N)C[C@H]2N)[C@@H](O)[C@H](N)[C@H]1O (stereo in doubt) | µg/mL | 125 |
| CCCCCCCCCCCCCCS(=O)(=O)C[C@@H]1O[C@@H](O[C@@H]2[C@@H](O)[C@H](O[C@@H]3O[C@@H](CN)[C@H](O)[C@@H](O)[C@@H]3N)[C@@H](N)C[C@H]2N)[C@@H](O)[C@H](N)[C@H]1O (stereo in doubt) | µg/mL | 7.8 |

###

experimentalProtocol: Hemolytic activity against mouse RBC at 62.5 ug/ml after 60 mins
Type: ADME, cell-based, Erythrocyte
conditionSet: red blood cells, read-out: Activity
propertyName: hemolysis at 1 h, 62.5 ug/ml (%)

| compound | value |
| --- | --- |
| CCCCCCCCCCCCCCCCSC[C@@H]1O[C@@H](O[C@@H]2[C@@H](O)[C@H](O[C@@H]3O[C@@H](CN)[C@H](O)[C@@H](O)[C@@H]3N)[C@@H](N)C[C@H]2N)[C@@H](O)[C@H](N)[C@H]1O (stereo in doubt) | 81 |

###

System: Salmonella enterica
experimentalProtocol: Antibacterial activity against Salmonella enterica ATCC 14028 by microdilution method
Assay type: functional
The label is YES for MIC below 60 mg/L and NO for MIC equal to or exceeding 60 mg/L.

| molecule | assignedCategory |
| --- | --- |
| CCCCCCCCCCSC[C@@H]1O[C@@H](O[C@@H]2[C@@H](O)[C@H](O[C@@H]3O[C@@H](CN)[C@H](O)[C@@H](O)[C@@H]3N)[C@@H](N)C[C@H]2N)[C@@H](O)[C@H](N)[C@H]1O (stereo in doubt) | NO |
| CCCCCCCCCCCCCCSC[C@@H]1O[C@@H](O[C@@H]2[C@@H](O)[C@H](O[C@@H]3O[C@@H](CN)[C@H](O)[C@@H](O)[C@@H]3N)[C@@H](N)C[C@H]2N)[C@@H](O)[C@H](N)[C@H]1O (stereo in doubt) | YES |
| CCCCCCCCCCCCSC[C@@H]1O[C@@H](O[C@@H]2[C@@H](O)[C@H](O[C@@H]3O[C@@H](CN)[C@H](O)[C@@H](O)[C@@H]3N)[C@@H](N)C[C@H]2N)[C@@H](O)[C@H](N)[C@H]1O (stereo in doubt) | NO |
| NC[C@H]1O[C@H](O[C@H]2[C@H](O)[C@@H](O[C@H]3O[C@H](CO)[C@@H](O)[C@H](N)[C@H]3O)[C@H](N)C[C@@H]2N)[C@H](O)[C@@H](O)[C@@H]1O [KANAMYCIN] | YES |
| CCCCCCCCCCCCCCCCSC[C@@H]1O[C@@H](O[C@@H]2[C@@H](O)[C@H](O[C@@H]3O[C@@H](CN)[C@H](O)[C@@H](O)[C@@H]3N)[C@@H](N)C[C@H]2N)[C@@H](O)[C@H](N)[C@H]1O (stereo in doubt) | NO |
| NC[C@H]1O[C@H](O[C@H]2[C@H](O)[C@@H](O[C@H]3O[C@H](CO)[C@@H](O)[C@H](N)[C@H]3O)[C@H](N)C[C@@H]2N)[C@H](N)[C@@H](O)[C@@H]1O [BEKANAMYCIN] | YES |
| CCCCCCCCSC[C@@H]1O[C@@H](O[C@@H]2[C@@H](O)[C@H](O[C@@H]3O[C@@H](CN)[C@H](O)[C@@H](O)[C@@H]3N)[C@@H](N)C[C@H]2N)[C@@H](O)[C@H](N)[C@H]1O (stereo in doubt) | NO |
| CCCCCCCCCCCCS(=O)(=O)C[C@@H]1O[C@@H](O[C@@H]2[C@@H](O)[C@H](O[C@@H]3O[C@@H](CN)[C@H](O)[C@@H](O)[C@@H]3N)[C@@H](N)C[C@H]2N)[C@@H](O)[C@H](N)[C@H]1O (stereo in doubt) | NO |
| CCCCCCCCCCCCCCS(=O)(=O)C[C@@H]1O[C@@H](O[C@@H]2[C@@H](O)[C@H](O[C@@H]3O[C@@H](CN)[C@H](O)[C@@H](O)[C@@H]3N)[C@@H](N)C[C@H]2N)[C@@H](O)[C@H](N)[C@H]1O (stereo in doubt) | NO |
